Numbers sourced from patent US20200140562A1.

# Subject of test: T1, cyno OX40_Fc (Acro Biosystems) (cyno)
# T1 construct: Bought
# Assay remarks: BLI, IgG1 on tip, cyno OX40-Fc 100 nM, avid
Property name: pKd
// pKd: -log10(molar conc.)

Take a look at these entries with their results.
Binder	Value
ADI-25654, IgG1 format (antibody, V domains shown, Made in yeast or CHO cells; also called ADI-25654-g1) VH: QVQLVESGGGVVQPGRSLRLSCAASGFTFRSYDMHWVRQAPGKGLEWVAYIAYDGSNKYYADSVKGRFTISRDNSKNTLYLQMNSLRAEDTAVYYCARGRPWYSETGTSAFDIWGQGTMVTVSS VL: DIQMTQSPSSLSASVGDRVTITCQASQDISNYLNWYQQKPGKAPKLLIYDASNLETGVPSRFSGSGSGTDFTFTISSLQPEDIATYYCQQSDHYPTFGGGTKVEIKR	8.82
ADI-25651, IgG1 format (antibody, V domains shown, Made in yeast) VH: QVQLVESGGGVVQPGRSLRLSCAASGFTFSSRNMHWVRQAPGKGLEWVAVIAYDGSLKYYADSVKGRFTISRDNSKNTLYLQMNSLRAEDTAVYYCARGRPWYSETGTSAFDIWGQGTMVTVSS VL: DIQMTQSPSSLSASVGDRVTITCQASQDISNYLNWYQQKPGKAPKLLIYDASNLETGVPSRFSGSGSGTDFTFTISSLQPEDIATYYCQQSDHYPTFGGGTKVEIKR	8.86
ADI-23519, IgG1 format (antibody, V domains shown, Made in yeast) VH: QVQLQESGPGLVKPSQTLSLTCTVSGGSISSGSSYWSWIRQHPGKGLEWIGYIYMSGETYYNPSLKSRVTISVDTSKNQFSLKLSSVTAADTAVYYCARDVGYPHYYGMDVWGQGTTVTVSS VL: EIVLTQSPGTLSLSPGERATLSCRASQSVSSSYLAWYQQKPGQAPRLLIYGASSRATGIPDRFSGSGSGTDFTLTISRLEPEDFAVYYCQQSERSPFTFGGGTKVEIKR	8.96
ADI-25650, IgG1 format (antibody, V domains shown, Made in yeast) VH: QVQLVESGGGVVQPGRSLRLSCAASGFTFSVYNMHWVRQAPGKGLEWVAVIAYDGSAKYYADSVKGRFTISRDNSKNTLYLQMNSLRAEDTAVYYCARGRPWYSETGTSAFDIWGQGTMVTVSS VL: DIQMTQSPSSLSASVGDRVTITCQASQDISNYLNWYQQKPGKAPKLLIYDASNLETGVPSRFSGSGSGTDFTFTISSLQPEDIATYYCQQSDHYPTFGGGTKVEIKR	8.80

Turning now to a further record.
Form field: reported pKd of ADI-25653, IgG1 format (antibody, V domains shown, Made in yeast) VH: QVQLVESGGGVVQPGRSLRLSCAASGFTFVSYNMHWVRQAPGKGLEWVAVIMYDGSAKYYADSVKGRFTISRDNSKNTLYLQMNSLRAEDTAVYYCARGRPWYSETGTSAFDIWGQGTMVTVSS VL: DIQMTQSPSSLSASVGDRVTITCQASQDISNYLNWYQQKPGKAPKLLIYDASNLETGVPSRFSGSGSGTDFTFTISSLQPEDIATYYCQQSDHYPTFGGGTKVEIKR
8.94
